Collected inhibition at 1 µM values appear next to each entry.
target: Amine oxidase [flavin-containing] B (Homo sapiens, UniProt P27338); details: read-out: INH
Sequence (P27338 whole entry): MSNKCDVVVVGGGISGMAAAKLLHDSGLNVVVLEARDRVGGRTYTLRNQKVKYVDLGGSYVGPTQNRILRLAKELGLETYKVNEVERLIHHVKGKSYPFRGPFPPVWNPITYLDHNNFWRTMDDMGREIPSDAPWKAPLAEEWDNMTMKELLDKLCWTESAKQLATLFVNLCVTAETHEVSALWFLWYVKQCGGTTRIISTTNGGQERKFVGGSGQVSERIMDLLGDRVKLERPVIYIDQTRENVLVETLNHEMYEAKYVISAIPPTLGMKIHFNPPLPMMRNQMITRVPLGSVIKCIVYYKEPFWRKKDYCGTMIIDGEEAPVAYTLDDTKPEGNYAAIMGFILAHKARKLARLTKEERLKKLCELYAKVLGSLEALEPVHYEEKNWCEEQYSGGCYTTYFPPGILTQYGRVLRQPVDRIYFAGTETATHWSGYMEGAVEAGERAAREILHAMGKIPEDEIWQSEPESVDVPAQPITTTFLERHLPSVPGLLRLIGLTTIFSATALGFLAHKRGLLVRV
Description: Inhibition of human recombinant MAO-B using para-tyramine as substrate at 1 uM by Amplex Red fluorimetric assay relative to control

Known results for compounds:
>>> value("C#CCN1CCN(CCCOc2ccc3c(ccn3S(=O)(=O)c3ccc(C(=O)NO)cc3)c2)CC1")
"28%"
>>> value("CCCNNC(=O)c1ccc(S(=O)(=O)n2ccc3cc(OC)ccc32)cc1")
"< 10%"
>>> value("O=C(NO)c1ccc(S(=O)(=O)n2ccc3cc(OCCCN4CCCCC4)ccc32)cc1")
"< 10%"

// moving on: another record for inhibition at 1 µM
### Prompt What inhibition at 1 µM value was documented for this compound, `CCCNNC(=O)c1ccc(S(=O)(=O)n2ccc3cc(OCCCN4CCCCC4)ccc32)cc1` ?
### Response < 10%

---

target: Histone deacetylase 1 (Homo sapiens, UniProt Q13547); experiment: biochemical
Sequence (Q13547 whole entry): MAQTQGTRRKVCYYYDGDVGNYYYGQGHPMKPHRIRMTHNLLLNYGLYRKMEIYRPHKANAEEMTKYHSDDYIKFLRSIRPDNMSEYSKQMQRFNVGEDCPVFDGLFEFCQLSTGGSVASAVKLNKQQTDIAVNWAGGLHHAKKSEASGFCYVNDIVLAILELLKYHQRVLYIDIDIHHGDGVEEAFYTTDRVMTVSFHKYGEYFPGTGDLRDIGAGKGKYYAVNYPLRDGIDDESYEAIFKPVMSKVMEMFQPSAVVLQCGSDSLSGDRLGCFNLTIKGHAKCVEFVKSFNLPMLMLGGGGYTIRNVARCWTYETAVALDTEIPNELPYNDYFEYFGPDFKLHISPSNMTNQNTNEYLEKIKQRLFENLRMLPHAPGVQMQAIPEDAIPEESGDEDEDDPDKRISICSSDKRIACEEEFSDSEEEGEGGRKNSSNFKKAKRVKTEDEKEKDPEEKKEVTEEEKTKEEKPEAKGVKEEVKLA
recorded metric: IC50

>>> value("C#CCN(C)Cc1cc2cc(OCCCN3CCCCC3)ccc2n1C")
"> 10 µM"

### Prompt What IC50 value was documented for this compound, `CCCN(CCC)NC(=O)c1ccc(S(=O)(=O)n2ccc3cc(OC)ccc32)cc1` ?
### Response > 10 µM
